Catalogue of inhibition values
Species on record: Homo sapiens
Experiment: Inhibition of alkaline phosphatase (unknown origin) phosphatase activity assessed as fluorescence at 100 uM by BMG plate reader in the presence of 0.005% Tween-20

| compound | inhibition |
| --- | --- |
| CCOc1ccc(-c2nc(-c3ccc4ccccc4c3)cs2)cc1 | < 50% |
| COc1ccccc1-c1nc(-c2ccc3c(c2)CCN3S(C)(=O)=O)cs1 | < 50% |
| COc1ccc(-c2nc(-c3cc(C)n(CC4CCCO4)c3C)cs2)cc1 (configuration not stated) | < 50% |
| COc1ccc(-c2nc(-c3ccc4c(c3)CCN4S(C)(=O)=O)cs2)cc1 | < 50% |
| Cc1cccc(-c2nc(-c3ccc4c(c3)CCN4S(C)(=O)=O)cs2)c1 | < 50% |
| CCOc1ccc(-c2nc(-c3ccc4c(c3)CC(=O)N4C)cs2)cc1 | < 50% |
| CCOc1ccc(-c2nc(-c3ccc4[nH]c(=O)[nH]c4c3)cs2)cc1 | < 50% |

###

Target: Dual specificity protein phosphatase 3 (Homo sapiens, UniProt P51452)
Sequence (P51452 whole entry): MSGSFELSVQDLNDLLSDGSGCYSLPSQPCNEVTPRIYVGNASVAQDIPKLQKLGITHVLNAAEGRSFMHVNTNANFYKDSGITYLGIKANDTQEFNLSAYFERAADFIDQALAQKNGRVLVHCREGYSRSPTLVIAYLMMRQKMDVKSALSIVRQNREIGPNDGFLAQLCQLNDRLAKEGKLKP
Assay: Inhibition of human His-tagged VHR phosphatase activity assessed as fluorescence by BMG plate reader in the absence of detergent
pIC50: −log10 of the molar value.

| molecule | pIC50 |
| --- | --- |
| CCOc1ccc(-c2nc(-c3ccc4[nH]c(=O)[nH]c4c3)cs2)cc1 | 5.72 |
| O=C(Nc1cccc(-c2csc(-c3ccccc3)n2)c1)c1ccco1 | 4.58 |
| COc1ccc(-c2nc(-c3cc(C)n(CC4CCCO4)c3C)cs2)cc1 (centres undefined) | 5.08 |
| CCOc1ccc(-c2nc(-c3ccc4ccccc4c3)cs2)cc1 | 5.36 |
| COc1ccccc1-c1nc(-c2ccc3c(c2)CCN3S(C)(=O)=O)cs1 | 5.57 |
| COc1ccc(-c2nc(-c3ccc4c(c3)CCN4S(C)(=O)=O)cs2)cc1 | 5.09 |
| COc1ccc(-c2csc(-c3cccc(NC(=O)C4CC4)c3)n2)cc1 | 5.05 |
| Cc1cccc(-c2nc(-c3ccc4c(c3)CCN4S(C)(=O)=O)cs2)c1 | 5.10 |
| CCOc1ccc(-c2nc(-c3ccc4c(c3)CC(=O)N4C)cs2)cc1 | 4.97 |

###

Catalogue of pIC50 values
Target: Dual specificity protein phosphatase 3 (Homo sapiens)
Assay: Inhibition of human His-tagged VHR phosphatase activity assessed as fluorescence by BMG plate reader in the presence of 0.005% Tween-20
pIC50: −log10 of the molar value.

| molecule | limit sign | pIC50 |
| --- | --- | --- |
| O=c1[nH]c2cc(S(=O)(=O)Nc3cccc(-c4csc(-c5ccccc5)n4)c3)ccc2o1 | = | 4.46 |
| COc1ccc(-c2nc(-c3ccc4c(c3)CCN4S(C)(=O)=O)cs2)cc1 | = | 4.34 |
| O=C(Nc1cccc(-c2csc(-c3ccccc3)n2)c1)c1cccc(=O)[nH]1 | < | 4.00 |
| O=C(CCC(=O)Nc1nc(-c2cc3ccccc3oc2=O)cs1)NCc1ccc2c(c1)OCO2 | = | 4.77 |
| CCOc1ccc(-c2nc(-c3ccc4c(c3)CC(=O)N4C)cs2)cc1 | = | 4.19 |
| COc1ccccc1-c1nc(-c2ccc3c(c2)CCN3S(C)(=O)=O)cs1 | = | 4.40 |
| COc1ccc(-c2nc(-c3cc(C)n(CC4CCCO4)c3C)cs2)cc1 (centres undefined) | = | 4.48 |
| O=C(Nc1nc(-c2ccc(F)cc2)cs1)c1cnccn1 | < | 4.00 |
| COc1ccc(-c2nc(-c3cnc(N)nc3)cs2)cc1 | < | 4.00 |
| O=C(CCC(=O)NC1CCCC1)Nc1nc(-c2cc3ccccc3oc2=O)cs1 | = | 4.60 |
| N#Cc1ccc(-c2csc(-c3ccc(-c4csnn4)cc3)n2)cc1 | < | 4.00 |
| COc1ccc(-c2csc(-c3cccc(NC(=O)C4CC4)c3)n2)cc1 | < | 4.00 |
| COc1ccc(-c2nc(C(=O)Nc3ccc[nH]c3=O)cs2)cc1 | < | 4.00 |
| O=C(Nc1cccc(-c2csc(-c3ccccc3)n2)c1)c1ccco1 | < | 4.00 |
